So I've got a bunch of compounds here, and I need their TGI values.
Test system: SN12C renal
testDescription: NCI tumour cell line growth inhibition, 48 h
Provide only the numeric value, understood in µM.

The compound listed as "CCOC(=O)N1CCC(N=C2CSc3nnc(-c4cc(C(F)(F)F)cc(C(F)(F)F)c4)n3N2)CC1" has a reported TGI of 3.57

TGI for CC(NNC(=S)N1CCN(c2ccccn2)CC1)c1nccc2ccccc12 (stereo unspecified) is 11.3

// recorded TGI for "Clc1nc2nc(N3CCNCC3)nc(N3CCCC3)c2[nH]1" : 34.4

----------
Test system: OVCAR-3 ovarian
testDescription: NCI tumour cell line growth inhibition, 48 h
testReadout: TGI

Record summary for COc1cc(C2c3cccc4cccc(c34)C3CCC(=O)N32)cc(OC)c1O (stereo not given) : reported TGI = > 50 µM

TGI for O=[N+]([O-])c1ccc2c(c1)C(N1CCN(CCO)CC1)Cc1ccc(F)cc1S2 (stereo not given) is 54.6 µM

In plain terms, "O=C(Nc1ccc(Br)c2ccccc12)c1ccc2ccccc2c1O" has a documented TGI of 35.7 µM

Kindly note the recorded TGI for "Cc1[nH]nc(C(F)(F)F)c1Cc1sc2c(c1C(=O)N1C[C@](C)(O)CO1)c(=O)n(C)c(=O)n2C(C)C" , which is > 100 µM

Consider "NC(=Nc1ccccc1)N/N=C/c1c[nH]c2ccccc12" . Its measured TGI is 0.314 µM

// field: TGI; key: "COc1cc2nc(-c3cccs3)nc(N3CCN(c4ccccc4)CC3)c2cc1OC" ; value = > 100 µM

Lookup result for Cc1ccc(C)n1-c1ccccc1C1C=Cn2c(=O)oc3c(OC(C)C)c(OC(C)C)c(O)c1c32 (stereo not given) ; measured TGI: > 100 µM

Value of TGI reported for the compound C=CCC1(CN(C)C)CC/C(=C\c2ccc3c(c2)OCO3)C1=O (stereo not given) is > 100 µM

// TGI value for "CCOC(=O)Cc1[nH]c(C(=O)c2ccccc2)cc1C(=O)c1ccccc1" : > 100 µM

Quick note, TGI for COc1cc2c(cc1OC)C(Cl)C(c1ccc(Br)cc1)=C2Cl (stereo not given) landed at 24.1 µM

// recorded TGI for "Clc1cnc(Nc2ccc(OCCN3CCCC3)cc2)nc1NCc1ccco1" : 9.75 µM

Measured TGI, "CC(C)N1CC2CC(CN(C(=O)c3ccc(Cl)cc3)C2)C1" : > 100 µM

Documented TGI of "[N-]=[N+]=C(C(=O)CN1CCCC1=O)S(=O)(=O)c1ccccc1" : > 100 µM

Given item "O=C(Nc1cccc([N+](=O)[O-])c1)c1cccc(C(=O)Nc2cccc([N+](=O)[O-])c2)c1" , the value recorded as its TGI is > 100 µM

Per the record, "Cc1ccc2ccccc2c1CSc1nc(N)nc2c1ncn2CC(C)C" has TGI of > 100 µM

Measured TGI of O=C1C(Cl)N(c2ccc([N+](=O)[O-])cc2)C1c1c[nH]c2ccccc12 (stereo not given) : > 100 µM

Data point: COP(=O)(CP(=O)(OC)OCCC(C)CCC=C(C)C)OC (stereo not given) ; TGI = > 100 µM

TGI reported for this compound O=C(CC(=O)N1N=C(c2ccccc2)C(N=Nc2ccc(S(=O)(=O)CCOS(=O)(=O)O)cc2)C1=O)Nc1ccc(Cl)cc1 (stereo not given) : > 100 µM

The recorded TGI for entry "CCOc1ccc2c(c1)C(/C(C(Cl)=C(Cl)Cl)=[N+](/[O-])OC(=O)c1ccccc1)=N2" equals > 100 µM

Measured TGI, "O=[N+]([O-])c1c(O)c2nonc2c2nn(-c3ccccc3)nc12" : > 100 µM

The measurements presented in this section are drawn from PubChem BioAssay (NCI).
